Biological target: T1, mouse FcRn (mouse, UniProt Q61559 22-297; P01887 21-119, limits assumed)
T1 sequence (looked up) 1: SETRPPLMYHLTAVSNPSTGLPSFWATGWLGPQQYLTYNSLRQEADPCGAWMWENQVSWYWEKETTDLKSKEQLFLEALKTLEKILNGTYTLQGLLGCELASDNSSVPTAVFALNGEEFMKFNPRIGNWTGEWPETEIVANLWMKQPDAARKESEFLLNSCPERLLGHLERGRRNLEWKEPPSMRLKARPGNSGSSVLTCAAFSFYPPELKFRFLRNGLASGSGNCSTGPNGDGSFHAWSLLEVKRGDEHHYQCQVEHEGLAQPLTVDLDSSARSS
T1 sequence (looked up) 2: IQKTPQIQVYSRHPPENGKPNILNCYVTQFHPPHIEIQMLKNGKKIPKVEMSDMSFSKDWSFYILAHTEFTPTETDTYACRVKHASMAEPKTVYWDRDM
Test: SPR, pH 6
Measured Property: Kd (nM)

INSERT INTO assay_data (binder, unit_label, numeric_result) VALUES
  ('Fc Fragment 10 (other, Human IgG1 Fc fragment; substitutions already in the entry) DKTHTCPPCPAPELLGGPSVFLFPPKPKDTLYITREPEVTCVVVDVSHEDPEVKFNWYVDGVEVHNAKTKPREEQYNSTYRVVSVLTVLHQDWLNGKEYKCKVSNKALPAPIEKTISKAKGQPREPQVYTLPPSRDELTKNQVSLTCLVKGFYPSDIAVEWESNGQPENNYKTTPPVLDSDGSFFLYSKLTVDKSRWQQGNVFSCSVLHEALKYHYTQKSLSLSPG', 'nM', 0.143),
  ('Fc Fragment 3 (other, Human IgG1 Fc fragment; substitutions already in the entry; also called Fc197) DKTHTCPPCPAPELLGGPSVFLFPPKPKDTLYITREPEVTCVVVDVSHEDPEVKFNWYVDGVEVHNAKTKPREEQYNSTYRVVSVLTVLHQDWLNGKEYKCKVSNKALPAPIEKTISKAKGQPREPQVYTLPPSRDELTKNQVSLTCLVKGFYPSDIAVEWESNGQPENNYKTTPPVLDSDGSFFLYSKLTVDKSRWQQGNVFSCSVMHEALKYHYTQKSLSLSPG', 'nM', 0.172),
  ('Fc Fragment 12 (other, Human IgG1 Fc fragment; substitutions already in the entry) DKTHTCPPCPAPELLGGPSVFLFPPKPKDTLYITREPEVTCVVVDVSHEDPEVKFNWYVDGVEVHNAKTKPREEQYNSTYRVVSVLTVLHQDWLNGKEYKCKVSNKALPAPIEKTISKAKGQPREPQVYTLPPSRDELTKNQVSLTCLVKGFYPSDIAVEWESNGQPENNYKTTPPVLDSDGSFFLYSKLTVDKSRWQQGNVFSCSVMHEALRYHYTQKSLSLSPG', 'nM', 0.194);
